tested on: Solanum lycopersicum; assay: Phytotoxicity against Solanum lycopersicum (tomato) assessed as growth inhibition of root length measured 5 days post treatment; assay type: functional, organism-based; details: 120 h
measured-endpoint: IC50
Quote the value and follow it with the unit of measurement.

Data request: Find the measured IC50 of CCC1Oc2ccc(Cl)cc2N(O)C1=O (stereo unspecified) and report it.
Data returned: 2.3 µM

====

Can you tell me IC50 for the items I'm about to list?
tested on: Lepidium sativum; test: Phytotoxicity against Lepidium sativum assessed as growth inhibition of root length measured 4 days post treatment; assay type: functional, organism-based; conditions: 96 h
Quote the value and follow it with the unit of measurement.

The following compounds have reported results that may help.
Data request: Fill: IC50 (Lepidium sativum) for this compound CCCCC(=O)ON1C(=O)COc2ccc(Cl)cc21 [6-Cl-4-Val-D-DIBOA]
Data returned: 60 nM

Data request: Fill: IC50 (Lepidium sativum) for this compound CCCON1C(=O)COc2ccc(Cl)cc21 [6-Cl-4-Pr-D-DIBOA]
Data returned: 60 nM

Data request: Fill: IC50 (Lepidium sativum) for this compound CCC1Oc2ccc(F)cc2N(O)C1=O [6-F-2-Et-D-DIBOA]
Data returned: 1000 nM

// next item, IC50 requested
Data request: Fill: IC50 (Lepidium sativum) for this compound CCC1Oc2ccc(Cl)cc2N(O)C1=O [6-Cl-2-Et-D-DIBOA]
Data returned: 400 nM
